Recorded GI50, one value per entry.
- Tested on: OVCAR-4 ovarian
- EXPERIMENT SUMMARY: NCI tumour cell line growth inhibition, 48 h

> print(dat)
                                item.smiles  measured.value
1  N#CC(C#N)=C/C=C(\Sc1ccc(Cl)cc1)c1ccc(F)cc1         19.5 µM
2             Cc1cccc(Cn2cc(CO)c3cnccc32)c1         78.3 µM
3  O=C(COc1ccc(/C=C2\Oc3ccccc3C2=O)cc1)Nc1nc2ccccc2s1         21.2 µM

Challenge: Form field - read-out: GI50; system: OVCAR-4 ovarian; submitted item: CC(=O)[CH-]C(=O)c1ccccc1.[C-]#[O+].[C-]#[O+].[Ir]
Response given: > 100 µM
